# STUDY_TARGET: G-protein coupled receptor 35 (Homo sapiens, UniProt Q9HC97)
# Sequence (Q9HC97 whole entry): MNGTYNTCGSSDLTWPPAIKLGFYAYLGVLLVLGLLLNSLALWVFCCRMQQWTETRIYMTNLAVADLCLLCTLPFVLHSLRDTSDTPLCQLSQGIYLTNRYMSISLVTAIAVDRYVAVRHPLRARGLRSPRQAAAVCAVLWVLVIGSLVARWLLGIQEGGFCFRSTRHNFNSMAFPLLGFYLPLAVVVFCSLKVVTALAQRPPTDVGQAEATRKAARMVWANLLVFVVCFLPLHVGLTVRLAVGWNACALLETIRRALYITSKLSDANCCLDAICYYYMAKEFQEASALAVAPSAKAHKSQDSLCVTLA
# TEST_PROTOCOL: Agonist activity at human GPR35 by Ca+2 release assay
OBSERVABLE: EC50 (nM)
Write the answer as a number in nM, unit excluded.

// returns EC50 for O=C(O)c1cc(=O)c2c(OCC(O)COc3cccc4oc(C(=O)O)cc(=O)c34)cccc2o1 with G-protein coupled receptor 35 (Homo sapiens, UniProt Q9HC97); value = 210
